molecular target: T1, recombinant cynomolgus ApoC3 (cynomolgus monkey, UniProt P18659 21-99, biotinylated in the captured-antigen assays (Tables 6 and 8); sites not stated); assay: SPR, biotinylated antigen captured on SA chip, scFv periplasmic extract injected, pH 7.4
T1 construct: No cleavage site is stated, so none is applied; also called rcyApoC3; bio-rcyApoC3
T1 sequence (P18659 21-99 limits assumed): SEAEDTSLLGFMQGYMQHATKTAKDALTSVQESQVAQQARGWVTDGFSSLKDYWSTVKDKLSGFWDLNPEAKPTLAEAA
Readout: koff (s⁻¹)
Please state the figure in s⁻¹; there is no need to write the unit.

Qu. State, in one line, measured koff of 29B03 scFv (scFv, part only; not given: scFv linker, domain order, c-myc tag, V domains shown, not shown: another chain or arm of the molecule; small tags and cut ends) VH: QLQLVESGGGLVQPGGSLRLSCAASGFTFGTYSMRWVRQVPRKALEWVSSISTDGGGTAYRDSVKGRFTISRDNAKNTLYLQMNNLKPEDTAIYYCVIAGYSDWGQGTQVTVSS VL: DVVLTQTPGSLSVVPGESASISCKAGQNLVHPDGKTYLYWLLQKPGQSPQRLIYQVSNRDSGVPDRFTGSGSGTDFTLKISGVKVEDAGVYYCAQGTYWPKTFGQGTKLEIK
Ans. 0.0418
